target system: SMARCA4 (Homo sapiens, UniProt P51532)
Construct: SMARCA4-HiBiT knock-in Hela monoclonal cell (CS3023226) were purchased from Promega; host or cells: HeLa (CRISPR HiBiT knock-in monoclonal line, heterozygous)
Sequence (P51532 whole entry): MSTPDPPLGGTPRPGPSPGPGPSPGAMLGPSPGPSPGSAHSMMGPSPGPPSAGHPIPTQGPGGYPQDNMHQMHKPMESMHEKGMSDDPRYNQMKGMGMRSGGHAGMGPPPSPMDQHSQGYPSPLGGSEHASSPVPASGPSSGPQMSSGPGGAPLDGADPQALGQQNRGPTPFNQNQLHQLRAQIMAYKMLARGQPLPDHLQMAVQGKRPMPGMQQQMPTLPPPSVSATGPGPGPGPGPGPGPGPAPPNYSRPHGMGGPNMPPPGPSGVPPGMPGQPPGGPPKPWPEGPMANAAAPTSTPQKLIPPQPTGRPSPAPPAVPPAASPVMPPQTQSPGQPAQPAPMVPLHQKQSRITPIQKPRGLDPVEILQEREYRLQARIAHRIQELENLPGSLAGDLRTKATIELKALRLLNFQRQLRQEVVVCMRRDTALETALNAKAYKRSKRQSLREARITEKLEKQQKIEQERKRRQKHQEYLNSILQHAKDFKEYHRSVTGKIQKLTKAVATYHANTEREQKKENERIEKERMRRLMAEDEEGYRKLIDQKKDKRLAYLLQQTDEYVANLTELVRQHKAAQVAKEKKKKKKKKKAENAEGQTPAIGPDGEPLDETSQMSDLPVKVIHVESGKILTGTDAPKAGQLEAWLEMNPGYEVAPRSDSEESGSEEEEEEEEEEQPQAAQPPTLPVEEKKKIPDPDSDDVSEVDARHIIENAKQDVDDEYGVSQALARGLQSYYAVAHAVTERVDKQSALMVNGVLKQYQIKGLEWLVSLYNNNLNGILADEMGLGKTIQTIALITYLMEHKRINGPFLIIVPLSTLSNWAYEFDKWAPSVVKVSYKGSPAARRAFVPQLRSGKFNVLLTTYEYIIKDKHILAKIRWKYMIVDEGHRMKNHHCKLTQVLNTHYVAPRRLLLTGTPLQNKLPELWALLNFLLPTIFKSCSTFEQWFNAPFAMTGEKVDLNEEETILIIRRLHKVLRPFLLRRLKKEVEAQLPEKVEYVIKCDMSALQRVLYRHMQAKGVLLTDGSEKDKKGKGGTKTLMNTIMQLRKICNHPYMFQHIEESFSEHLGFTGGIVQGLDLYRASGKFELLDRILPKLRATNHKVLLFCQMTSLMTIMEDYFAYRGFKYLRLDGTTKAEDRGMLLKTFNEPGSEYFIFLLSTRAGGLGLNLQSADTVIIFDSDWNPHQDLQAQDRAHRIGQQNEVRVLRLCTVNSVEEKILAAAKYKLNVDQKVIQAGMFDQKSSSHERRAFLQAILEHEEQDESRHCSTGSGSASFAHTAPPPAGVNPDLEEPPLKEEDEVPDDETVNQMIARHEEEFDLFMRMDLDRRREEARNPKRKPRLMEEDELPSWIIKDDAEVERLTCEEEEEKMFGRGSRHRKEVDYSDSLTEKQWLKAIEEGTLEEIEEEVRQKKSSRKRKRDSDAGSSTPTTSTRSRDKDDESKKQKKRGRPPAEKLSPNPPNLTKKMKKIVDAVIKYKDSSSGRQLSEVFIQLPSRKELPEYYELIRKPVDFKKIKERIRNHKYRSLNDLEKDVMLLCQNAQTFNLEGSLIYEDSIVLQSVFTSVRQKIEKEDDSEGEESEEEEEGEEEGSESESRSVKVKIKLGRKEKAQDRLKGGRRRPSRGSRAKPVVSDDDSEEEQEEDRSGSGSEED
test protocol: SMARCA4 HiBiT degradation assay in HeLa cells
Format: cell-based
run conditions: HeLa, 18 hours
experimental readout: Dmax

Return Dmax for the following compound: CCC12CNc3nnc(-c4cccc(F)c4O)cc3N1CCN(C(=O)N1CCN(CC3CCN(c4ccc5c(c4)C(=O)N(C4CCC(=O)NC4=O)C5=O)CC3)CC1(C)C)C2 (mixture of isomers)
< 50%

Using the record for C[C@@H]1CN(CC2CCN(c3ccc4c(c3)C(=O)N(C3CCC(=O)NC3=O)C4)CC2)C[C@@H](C)N1C(=O)N1CCN2c3cc(-c4cccc(Cl)c4O)nnc3NCC2(C)C1 (single isomer, unassigned) , state its measured Dmax.
50 to 75%

Return Dmax (reported value) for this compound: CC1(C)CN(CC2CCN(c3ccc4c(c3)C(=O)N(C3CCC(=O)NC3=O)C4)CC2)CCN1C(=O)N1CCN2c3cc(-c4cc(F)cc(F)c4O)nnc3NC[C@H]2C1 (some centres unmarked)
50 to 75%

Find the measured Dmax of C[C@@H]1CN(C[C@H]2CN(c3ccc4c(c3)CN(C3CCC(=O)NC3=O)C4=O)CCO2)C[C@H](C)N1C(=O)N1CCN2c3cc(-c4cc(F)cc(F)c4O)nnc3NC[C@H]2C1 (some centres unmarked) and report it.
< 50%

Report Dmax, nothing else, for this compound: CCC1CN(CC2CN(c3ccc4c(c3)C(=O)N(C3CCC(=O)NC3=O)C4)C2)CCN1C(=O)N1CCN2c3cc(-c4cc(F)cc(F)c4O)nnc3NC[C@H]2C1 (mixture of isomers)
< 50%

---

target system: SMARCA4 (Homo sapiens, UniProt P51532)
Construct: SMARCA4-HiBiT knock-in Hela monoclonal cell (CS3023226) were purchased from Promega; host or cells: HeLa (CRISPR HiBiT knock-in monoclonal line, heterozygous)
test protocol: SMARCA4 HiBiT degradation assay in HeLa cells
Assay type: cell-based
run conditions: 18 hours
experimental readout: SMARCA4 DMax %

Check out these entries, answers already filled in.
>  <compound>
C[C@@H]1CN(CC2CCN(c3ccc4c(c3)C(=O)N(C3CCC(=O)NC3=O)C4)CC2)C[C@H](C)N1C(=O)N1CCN2c3cc(-c4cccc(F)c4O)nnc3NCC2(C)C1 (single isomer, unassigned) [Example 11]

>  <assay value>
B (B=50%<Dmax≤75%)

$$$$
>  <compound>
CC1(C)CC(CN2CCN(c3ccc4c(c3)C(=O)N([C@H]3CCC(=O)NC3=O)C4)CC2)CCN1C(=O)N1CCN2c3cc(-c4cccc(F)c4O)nnc3NCC2(C)C1 (single isomer, unassigned) [Example 123]

>  <assay value>
A (A=Dmax>75%)

$$$$
>  <compound>
CC1(C)CN(CC2CCN(c3ccc4c(c3)C(=O)N(C3CCC(=O)NC3=O)C4)CC2)CCN1C(=O)N1CCN2c3cc(-c4cccc(F)c4O)nnc3NCC2(C)C1 (single isomer, unassigned) [Example 9]

>  <assay value>
A (A=Dmax>75%)

$$$$
>  <compound>
CCC12CNc3nnc(-c4cccc(F)c4O)cc3N1CCN(C(=O)N1[C@H](C)CN(CC3CCN(c4ccc5c(c4)C(=O)N(C4CCC(=O)NC4=O)C5)CC3)C[C@H]1C)C2 (single isomer, unassigned) [Example 82]

>  <assay value>
A (A=Dmax>75%)

$$$$
>  <compound>
CCC12CNc3nnc(-c4cccc(F)c4O)cc3N1CCN(C(=O)N1CCN(CC3CCN(c4ccc5c(c4)C(=O)N(C4CCC(=O)NC4=O)C5)CC3)CC1(C)C)C2 (single isomer, unassigned)

>  <assay value>
B (B=50%<Dmax≤75%)

$$$$
>  <compound>
C[C@@H]1C[C@H](CN2CCN(c3ccc4c(c3)C(=O)N([C@H]3CCC(=O)NC3=O)C4)CC2)C[C@H](C)N1C(=O)N1CCN2c3cc(-c4cccc(F)c4O)nnc3NCC2(C(F)(F)F)C1 (single isomer, unassigned) [Example 99]

>  <assay value>
B (B=50%<Dmax≤75%)

$$$$
>  <compound>
CCC12CNc3nnc(-c4cccc(F)c4O)cc3N1CCN(C(=O)N1[C@H](C)CN(CC3CCN(c4ccc5c(c4)C(=O)N(C4CCC(=O)NC4=O)C5)CC3)C[C@H]1C)C2 (single isomer, unassigned) [Example 83]

>  <assay value>
B (B=50%<Dmax≤75%)

$$$$
>  <compound>
CCC12CNc3nnc(-c4cccc(F)c4O)cc3N1CCN(C(=O)N1[C@H](C)CN(CC3CCN(c4ccc5c(c4)C(=O)N(C4CCC(=O)NC4=O)C5)CC3)C[C@@H]1C)C2 (single isomer, unassigned) [Example 86]

>  <assay value>
A (A=Dmax>75%)

$$$$

Return value of SMARCA4 DMax % for input O=C1CCC(N2Cc3ccc(N4CCC(CN5C[C@@H]6[C@H](C5)[C@H]6CN5CCN6c7cc(-c8cc(F)cc(F)c8O)nnc7NC[C@H]6C5)C(F)(F)C4)cc3C2=O)C(=O)N1 (single isomer, unassigned) , no commentary.
B (B=50%<Dmax≤75%)

Specify reported SMARCA4 DMax % for the compound shown: C[C@@H]1CN(CC2CCN(c3ccc4c(c3)C(=O)N([C@H]3CCC(=O)NC3=O)C4)CC2)C[C@@H](C)N1C(=O)N1CCN2c3cc(-c4cccc(F)c4O)nnc3NCC2(C(F)(F)F)C1 (single isomer, unassigned) [Example 96]
A (A=Dmax>75%)
